The measured values listed here are drawn from the METLIN SMRT retention time set (Domingo-Almenara et al. 2019).

The reader will find reported RP-LC retention time values listed item by item below.
assay: gradient 5% acetonitrile 3 min, to 50% in 2 min, to 85% in 15 min, held 3 min, 100 µL/min; details: column: Zorbax Extend-C18 2.1 x 50 mm; eluents: water / acetonitrile, 0.1% formic acid

compound: O=C(c1ccc2ccccc2n1)N1CCOc2ccc(N3CCOCC3)cc2C1
RP-LC retention time (s): 784
--
compound: O=C(Nc1ccc(-c2nc3cccnc3s2)cc1)c1ccccc1Cl
RP-LC retention time (s): 893
--
compound: O=C(CN1C(=O)CCC1=O)N1CC(c2nc(-c3cccc(C(F)(F)F)c3)no2)C1
RP-LC retention time (s): 754
--
compound: O=S1(=O)C[C@H](N2CCN(c3ccccn3)CC2)[C@@H](S(=O)(=O)c2ccc(Cl)cc2)C1
RP-LC retention time (s): 643
--
compound: COc1ccc(CNC(=O)C2CCN(c3ccc(SCc4ccccc4)nn3)CC2)cc1OC
RP-LC retention time (s): 704
--
compound: CCNc1nccc(N2CCC(CC(=O)NCc3ccc(OC)c(OC)c3)CC2)n1
RP-LC retention time (s): 614
--
compound: CCN(CC)CCNc1ccc(-c2nc(-c3ccc(F)cc3)no2)nn1
RP-LC retention time (s): 667
--
compound: CCNc1cc(N2CCCC(CCC(=O)NCCOC)C2)ncn1 (centres undefined)
RP-LC retention time (s): 580
--
compound: COc1ccc(-c2nnc(-c3cccc(S(=O)(=O)N4CCCC4)c3)o2)cc1OC
RP-LC retention time (s): 885
